- tested target: glucose-6-phosphate dehydrogenase-6-phosphogluconolactonase (Plasmodium falciparum 3D7)
- test summary: inhibition of P. falciparum G6PD activity – biochemical, end-point NADPH detection, orthogonal assay, dose response (AID 540252)
- experimental parameters: purified PfG6PD enzyme, NADPH direct detection
Calls of active or inactive are those of the source. How the calls were made is not given here.
Outcome codes: active, inactive

smiles code | tested target | label value
c1ccc(SSc2ccccn2)nc1 | glucose-6-phosphate dehydrogenase-6-phosphogluconolactonase (Plasmodium falciparum 3D7) | active
Cc1ccc(NNS(=O)(=O)c2ccc(C)cc2)cc1 | glucose-6-phosphate dehydrogenase-6-phosphogluconolactonase (Plasmodium falciparum 3D7) | inactive
COc1cc(C(=O)O/N=C2/C=C(C)C(=O)C=C2C)cc(OC)c1OC | glucose-6-phosphate dehydrogenase-6-phosphogluconolactonase (Plasmodium falciparum 3D7) | inactive
Cc1ccc(-c2c(C(=O)N/N=C/c3ccc(C)o3)nnn2-c2nonc2N)cc1 | glucose-6-phosphate dehydrogenase-6-phosphogluconolactonase (Plasmodium falciparum 3D7) | inactive
Cc1ccc(-c2nc(N3CCOCC3)s[n+]2-c2ccccc2)cc1 | glucose-6-phosphate dehydrogenase-6-phosphogluconolactonase (Plasmodium falciparum 3D7) | inactive
O=C1C(Cl)=C(NCCc2ccccc2)C(=O)c2ccccc21 | glucose-6-phosphate dehydrogenase-6-phosphogluconolactonase (Plasmodium falciparum 3D7) | inactive

###

Reported IC50 values are given for each entry in this list.
- tested target: glucose-6-phosphate dehydrogenase-6-phosphogluconolactonase (Plasmodium falciparum 3D7)
- test summary: inhibition of P. falciparum G6PD activity – biochemical, end-point NADPH detection, orthogonal assay, dose response (AID 540252)
- experimental parameters: purified PfG6PD enzyme, NADPH direct detection
Active and inactive are the calls of the source. How the calls were made is not given here.

compound | IC50
CCN1CCN(C(=S)c2ccc(Cl)c(Cl)c2)CC1 | > 80 µM (inactive)
COc1ccc(OC)c2c1C(=O)C(Cl)=C(Cl)C2=O | 23.3 µM
O=C(Nc1nnc(S(=O)(=O)N2CCOCC2)s1)c1ccc(F)cc1 | > 80 µM (inactive)
CCN=c1scc(C)n1/N=C/c1ccc(O)c(O)c1O | > 80 µM (inactive)
COC(=O)c1ccccc1NC1=C/C(=N\S(=O)(=O)c2cccs2)c2ccccc2C1=O | > 80 µM (inactive)
COC(=O)CCC(=O)OC1(C)C(=O)C2=CN(c3ccccc3)C(c3ccc(OC)cc3)=CC2=C(Br)C1=O (centres undefined) | > 80 µM (inactive)
CCSc1nc2cc(S(=O)(=O)N3CCOCC3)ccc2o1 | > 80 µM (inactive)
O=C(N/N=C/c1cccc([N+](=O)[O-])c1)C(=O)N1CCCCCC1 | > 80 µM (inactive)
Cc1ccccc1-n1sc2cc(F)ccc2c1=O | 8.11 µM
O=C1C=CC(=O)N1CCNc1ncc(C(F)(F)F)cc1Cl | 65.4 µM
Cc1ccc(-c2nc(N)s[n+]2-c2ccccc2)cc1 | 60.3 µM
Cc1ccc(NC(=O)c2cc(N3C(=O)C=CC3=O)ccc2Cl)cc1C | 49.2 µM
Cc1ccc(NC(=O)Cn2sc3ccccc3c2=O)cc1 | 15 µM
Cc1noc(C(=O)Nc2sc3c(c2C#N)CCC3)c1Cl | > 80 µM (inactive)
CCOC(=O)c1sc(NC(=O)CSc2nnc(Cc3ccccc3)o2)c(C#N)c1C | > 80 µM (inactive)
CCOc1ccc(NC(=O)Cn2sc3nc(C)cc(C)c3c2=O)cc1 | > 80 µM (inactive)
CN(C)S(=O)(=O)c1cccc(-n2sc3ccccc3c2=O)c1 | 13.5 µM
NC1CCc2cc(O)c(O)cc2C1 (centres undefined) | 27.5 µM
CCCCCCCCn1sccc1=O | 46 µM
CCN(CC)c1ccc(NC(=O)c2ccccc2Br)cc1S(=O)(=O)Nc1ccccc1OC | > 80 µM (inactive)
Cc1ccccc1N/C(SCc1cccc(Br)c1)=C(/C#N)C(N)=O | > 80 µM (inactive)
Nn1c(CSc2nc3ccccc3o2)nnc1CSc1nc2ccccc2o1 | > 80 µM (inactive)
Cc1nnc(N/N=C/c2ccc(-c3ccccc3F)o2)n1N | > 80 µM (inactive)
Cc1cc(N=NC(=O)c2ccccc2O)c2ccccc2c1O | > 80 µM (inactive)

###

- tested target: glucose-6-phosphate dehydrogenase-6-phosphogluconolactonase (Plasmodium falciparum 3D7)
- test summary: inhibition of P. falciparum G6PD activity – biochemical, end-point NADPH detection, orthogonal assay, dose response (AID 540252)
- experimental parameters: purified PfG6PD enzyme, NADPH direct detection
Calls of active or inactive are those of the source. How the calls were made is not given here.
Outcome codes: active, inactive

compound | label value
Cc1ccc(-c2csc(NC(=O)c3ccc(Br)cc3)c2C(=O)O)cc1 | inactive
CC(=O)Nc1ccc(S(=O)(=O)NNc2cccc(C)c2)cc1 | inactive
Cc1cc(O)c(C(C)C)cc1N=Cc1ccc([N+](=O)[O-])cc1 | inactive
COc1cc(/C=N/Nc2nncn2N)ccc1OCc1c(C)no[n+]1[O-] | inactive
Cc1ccc(NC(=O)c2cc(C)n(-c3ccccc3)c2C)cc1 | inactive
CCn1c(N)c(C(=O)NC)sc1=S | inactive
COCCn1nnnc1C(c1cc2cc(OC)c(OC)cc2[nH]c1=O)N1CCN(c2ccc(O)cc2)CC1 (stereo unspecified) | inactive
CCC(c1ccc(O)c(O)c1)C(CC)c1ccc(O)c(O)c1 (stereo unspecified) | inactive
Cc1ccc(-n2c(N)c(C(=O)N3CCN(C)CC3)sc2=S)cc1 | active
Oc1ccc(/C=N/N=C(c2ccccc2)c2ccccc2)c(O)c1O | active
COc1cc(CNc2ccc(N3CCCC3)cc2)cc(Cl)c1OC | inactive

###

- tested target: glucose-6-phosphate dehydrogenase-6-phosphogluconolactonase (Plasmodium falciparum 3D7)
- test summary: inhibition of P. falciparum G6PD activity – biochemical, end-point NADPH detection, orthogonal assay, dose response (AID 540252)
- experimental parameters: purified PfG6PD enzyme, NADPH direct detection
Active and inactive are the calls of the source. The rule behind the calls is not given here.
Outcome codes: active, inactive

molecule | tested target | label value
O=C(Nc1nnc(S(=O)(=O)N2CCOCC2)s1)c1cccc(Br)c1 | glucose-6-phosphate dehydrogenase-6-phosphogluconolactonase (Plasmodium falciparum 3D7) | inactive
Oc1ccc(C23CC4CC(CC(C4)C2)C3)cc1O | glucose-6-phosphate dehydrogenase-6-phosphogluconolactonase (Plasmodium falciparum 3D7) | active
Fc1cccc(Cl)c1CNc1ccc(N2CCCC2)cc1 | glucose-6-phosphate dehydrogenase-6-phosphogluconolactonase (Plasmodium falciparum 3D7) | inactive
CC(C)c1nnc(NC(=O)c2cccc(-n3cnnn3)c2)s1 | glucose-6-phosphate dehydrogenase-6-phosphogluconolactonase (Plasmodium falciparum 3D7) | inactive
COc1cc(/C=N/n2cc(-c3ccccc3)[nH]c2=S)cc(OC)c1O | glucose-6-phosphate dehydrogenase-6-phosphogluconolactonase (Plasmodium falciparum 3D7) | inactive
O=C(CSc1nc2ccccc2[nH]1)NC1CCCc2ccccc21 (stereo not drawn) | glucose-6-phosphate dehydrogenase-6-phosphogluconolactonase (Plasmodium falciparum 3D7) | inactive
CCCCCCCCSC1=CC(=O)C(OC)=C(OC)C1=O | glucose-6-phosphate dehydrogenase-6-phosphogluconolactonase (Plasmodium falciparum 3D7) | inactive
COc1cc(N=c2ssnc2Cl)cc(OC)c1OC | glucose-6-phosphate dehydrogenase-6-phosphogluconolactonase (Plasmodium falciparum 3D7) | active
O=C(Nc1sc2c(c1C(=O)O)CCC2)c1ccc(F)cc1 | glucose-6-phosphate dehydrogenase-6-phosphogluconolactonase (Plasmodium falciparum 3D7) | inactive
CC(=O)Nc1cc2c(cc1[N+](=O)[O-])-c1ccccc1C2O (stereo not drawn) | glucose-6-phosphate dehydrogenase-6-phosphogluconolactonase (Plasmodium falciparum 3D7) | active
O=c1c2cc([N+](=O)[O-])ccc2sn1-c1ccccc1 | glucose-6-phosphate dehydrogenase-6-phosphogluconolactonase (Plasmodium falciparum 3D7) | active
Nc1[nH]c(=O)[nH]c(=O)c1N=Cc1ccccc1 | glucose-6-phosphate dehydrogenase-6-phosphogluconolactonase (Plasmodium falciparum 3D7) | inactive
COc1cc(NC(C)CCc2ccccc2)cc(OC)c1OC (stereo not drawn) | glucose-6-phosphate dehydrogenase-6-phosphogluconolactonase (Plasmodium falciparum 3D7) | inactive
CCC(C)N(CCNC(=O)c1ccc2c(c1)NC(=O)c1ccccc1S2)C1CCCCC1 (stereo not drawn) | glucose-6-phosphate dehydrogenase-6-phosphogluconolactonase (Plasmodium falciparum 3D7) | active
Nc1ccc2c3c(cccc13)-c1ccccc1-2 | glucose-6-phosphate dehydrogenase-6-phosphogluconolactonase (Plasmodium falciparum 3D7) | inactive
O=C(CSc1nc2cc(Cl)ccc2s1)c1ccco1 | glucose-6-phosphate dehydrogenase-6-phosphogluconolactonase (Plasmodium falciparum 3D7) | inactive
COc1cc(/C=C2\SC(c3ccc(C)cc3)=NC2=O)ccc1O | glucose-6-phosphate dehydrogenase-6-phosphogluconolactonase (Plasmodium falciparum 3D7) | inactive
Cc1nc2ccccn2c1-c1ccnn1S(=O)(=O)c1ccc(F)cc1 | glucose-6-phosphate dehydrogenase-6-phosphogluconolactonase (Plasmodium falciparum 3D7) | inactive
O=C(Nc1ccc(N2CCCC2)cc1)c1cccc(-c2cc3ccccc3oc2=O)c1 | glucose-6-phosphate dehydrogenase-6-phosphogluconolactonase (Plasmodium falciparum 3D7) | inactive
C[C@H](CO)N1C[C@H](C)[C@@H](CN(C)C(=O)Nc2ccc(C(F)(F)F)cc2)Oc2c(cccc2N(C)C)C1=O | glucose-6-phosphate dehydrogenase-6-phosphogluconolactonase (Plasmodium falciparum 3D7) | inactive
NCCNc1ccc(C(=O)N2c3ccccc3Sc3ccccc32)cc1[N+](=O)[O-] | glucose-6-phosphate dehydrogenase-6-phosphogluconolactonase (Plasmodium falciparum 3D7) | active
O=C(Nc1nnc(S(=O)(=O)N2CCCCC2)s1)c1ccc(Cl)cc1 | glucose-6-phosphate dehydrogenase-6-phosphogluconolactonase (Plasmodium falciparum 3D7) | inactive
CCOC(=O)C1CCCN(C(=O)Cn2sc3nc(C)cc(C)c3c2=O)C1 (stereo not drawn) | glucose-6-phosphate dehydrogenase-6-phosphogluconolactonase (Plasmodium falciparum 3D7) | inactive
